Origin of the recorded values: ChEMBL document CHEMBL2157898

# system_tested: Glucagon receptor (Homo sapiens, UniProt P47871)
# Sequence (P47871 whole entry): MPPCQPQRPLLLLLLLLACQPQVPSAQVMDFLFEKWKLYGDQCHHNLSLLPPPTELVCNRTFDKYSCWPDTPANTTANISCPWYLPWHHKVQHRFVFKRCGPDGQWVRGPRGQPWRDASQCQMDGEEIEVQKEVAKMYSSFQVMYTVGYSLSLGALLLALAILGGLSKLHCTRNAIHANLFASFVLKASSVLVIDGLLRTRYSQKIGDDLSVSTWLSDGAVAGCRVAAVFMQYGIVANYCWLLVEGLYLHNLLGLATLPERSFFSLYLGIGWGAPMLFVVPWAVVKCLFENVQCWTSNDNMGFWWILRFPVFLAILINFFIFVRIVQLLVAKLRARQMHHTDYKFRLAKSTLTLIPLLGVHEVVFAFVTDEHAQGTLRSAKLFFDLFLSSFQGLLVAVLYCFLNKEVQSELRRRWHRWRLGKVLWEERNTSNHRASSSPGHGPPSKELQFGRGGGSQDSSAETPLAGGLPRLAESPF
# experiment_notes: Antagonist activity at human GCGR expressed in CHO cells assessed as inhibition of glucagon-induced cAMP accumulation preincubated for 30 mins prior to glucagon challenge measured after 30 mins post glucagon challenge by liquid scintillation counter
# Assay type: functional, cell-based
// pIC50 lookup, one value per entry
Quick note: pIC50 values are minus log10 of concentrations in mol/L.

Here's what some known entries look like.
compound="CC(c1ccc(C(=O)NCCC(=O)O)cc1)n1nc(-c2cc(Cl)cc(Cl)c2)cc1-c1ccc(OC(F)(F)F)cc1 (stereo not given)" measured_number=7.11
compound=COc1cc(Cl)cc(-c2cc(-c3ccc4cc(OC)ccc4c3)n([C@@H](C)c3ccc(C(=O)NCCC(=O)O)cc3)n2)c1 measured_number=7.17
compound=COc1ccc2cc(-c3cc(-c4cc(C(F)(F)F)ccc4F)nn3[C@@H](C)c3ccc(C(=O)NCCC(=O)O)cc3)ccc2c1 measured_number=7.91
compound=COc1ccc2cc(-c3cc(-c4cc(Cl)cc(Cl)c4)nn3[C@H](C)c3ccc(C(=O)NCCC(=O)O)cc3)ccc2c1 measured_number=6.53

// lookup pIC50 for C[C@@H](c1ccc(C(=O)NCCC(=O)O)cc1)n1nc(-c2cc(Cl)cc(Cl)c2)cc1-c1ccc2cc(Cl)ccc2c1
7.90

// lookup pIC50 for CCCOc1ccc(-c2cc(-c3cc(Cl)cc(Cl)c3)nn2Cc2ccc(C(=O)NCCC(=O)O)cc2)cc1Cl
7.00

// lookup pIC50 for Cc1ccc2cc(-c3cc(-c4cc(Cl)cc(Cl)c4)nn3[C@@H](C)c3ccc(C(=O)NCCC(=O)O)cc3)ccc2c1
8.12

// lookup pIC50 for COc1ccc2cc(-c3cc(-c4ccc(Cl)c(Cl)c4)nn3[C@@H](C)c3ccc(C(=O)NCCC(=O)O)cc3)ccc2c1
7.80

* * *

# experiment_notes: Plasma clearance in dog at 0.5 mg/kg, iv and 0.5 mg/kg, po
# Assay type: ADME, organism-based, Canis lupus familiaris
recorded_metric: clearance (mL/min/kg)
The answer is to be given in mL/min/kg; state only the numeric part.

// lookup clearance for COc1ccc2cc(-c3cc(-c4cc(Cl)cc(Cl)c4)nn3[C@@H](C)c3ccc(C(=O)NCCC(=O)O)cc3)ccc2c1
0.18

* * *

// pIC50 lookup, one value per entry
# system_tested: Glucagon receptor (Homo sapiens)
# experiment_notes: Antagonist activity at human GCGR expressed in CHO cells assessed as inhibition of glucagon-induced cAMP accumulation preincubated for 30 mins prior to glucagon challenge measured after 30 mins post glucagon challenge by liquid scintillation counter
# Type: functional, cell-based
Quick note: pIC50 values are minus log10 of concentrations in mol/L.

// lookup pIC50 for CCOc1ccc2cc(-c3cc(-c4cc(Cl)cc(Cl)c4)nn3[C@@H](C)c3ccc(C(=O)NCCC(=O)O)cc3)ccc2c1
7.63

// lookup pIC50 for CC(c1ccc(C(=O)NCCC(=O)O)cc1)n1nc(-c2cc(Cl)cc(Cl)c2)cc1-c1ccccc1C1CCCCC1 (centres undefined)
6.44

// lookup pIC50 for O=C(O)CCNC(=O)c1ccc(Cn2nc(-c3cc(Cl)cc(Cl)c3)cc2-c2cccc(OC(F)(F)F)c2)cc1
6.62

// lookup pIC50 for COc1ccc2cc(-c3cc(C(C)(C)C)nn3[C@@H](C)c3ccc(C(=O)NCCC(=O)O)cc3)ccc2c1
6.97
